Numbers sourced from ChEMBL document CHEMBL1154733.

test.target: Mu-type opioid receptor (Homo sapiens)
assay: Antagonist activity at human cloned mu opioid receptor expressed in CHO cells assessed as inhibition of DAMGO-stimulated [35S]GTPgammaS binding
Type: functional, cell-based
# Ke annotations
Quick reminder: number only, in nM, skip the unit.

Solved entries (count: 6):
{"substance.smiles": "COc1ccc2c(c1)CN[C@@](C)(C(=O)N[C@H](CN1CC[C@@](C)(c3cccc(O)c3)[C@@H](C)C1)C(C)C)C2", "Ke, nM": 3.8}
{"substance.smiles": "CC[C@H](C)[C@@H](CN1CC[C@@](C)(c2cccc(O)c2)[C@@H](C)C1)NC(=O)[C@@]1(C)Cc2ccc(O)cc2CN1", "Ke, nM": 8.7}
{"substance.smiles": "CC[C@H](C)[C@@H](CN1CC[C@@](C)(c2cccc(OC)c2)[C@@H](C)C1)NC(=O)[C@H]1Cc2ccc(O)cc2CN1", "Ke, nM": 5.1}
{"substance.smiles": "CC[C@H](C)[C@@H](CN1CC[C@@](C)(c2cccc(O)c2)[C@@H](C)C1)NC(=O)[C@@]1(C)Cc2ccc(OC)cc2CN1", "Ke, nM": 17.5}
{"substance.smiles": "COc1cccc([C@]2(C)CCN(C[C@@H](NC(=O)[C@H]3Cc4ccc(O)cc4CN3C)C(C)C)C[C@@H]2C)c1", "Ke, nM": 880}
{"substance.smiles": "COc1ccc2c(c1)CN(C)[C@@](C)(C(=O)N[C@H](CN1CC[C@@](C)(c3cccc(O)c3)[C@@H](C)C1)C(C)C)C2", "Ke, nM": 7}

Please turn your attention to the following entry.
So what's the measured Ke for this one? `CC[C@H](C)[C@@H](CN1CC[C@@](C)(c2cccc(O)c2)[C@@H](C)C1)NC(=O)[C@H]1Cc2ccc(O)cc2CN1C` 7.2
